Tested on: Saccharomyces cerevisiae BY4741 SeMeCo community
test-description: z-score of subpopulation abundance vs DMSO median, subpopulation auxotrophic for HLU; higher = larger share of this subpopulation than in DMSO controls
run-conditions: 10 µM; 24 h; SM minimal medium; subpopulation (auxotrophy): HLU
Where a name gives a salt, the structure may show the parent alone.

compound: CC1=C(C(=O)OC(C)C)C(c2cccc([N+](=O)[O-])c2)C(C(=O)OC2CN(C(c3ccccc3)c3ccccc3)C2)=C(N)N1 (configuration not stated)
target-system: Saccharomyces cerevisiae BY4741 SeMeCo community
z-score of subpopulation abundance: -0.12

compound: Clc1ccc(COC(Cn2ccnc2)c2ccc(Cl)cc2Cl)cc1 (configuration not stated) [Econazole]
target-system: Saccharomyces cerevisiae BY4741 SeMeCo community
z-score of subpopulation abundance: 4.6

compound: CO[C@H]1O[C@@H]2O[C@@]3(C)CC[C@H]4[C@H](C)CC[C@@H]([C@H]1C)[C@@]24OO3
target-system: Saccharomyces cerevisiae BY4741 SeMeCo community
z-score of subpopulation abundance: -0.85

compound: CC1=C(CC(=O)O)c2cc(F)ccc2/C1=C\c1ccc([S+](C)[O-])cc1 (configuration not stated)
target-system: Saccharomyces cerevisiae BY4741 SeMeCo community
z-score of subpopulation abundance: -0.15

compound: CCOc1cc(N)c([N+](=O)[O-])cc1C(=O)NC1CCN(CC2CC=CCC2)CC1 (configuration not stated) [Cinitapride Hydrogen Tartrate]
target-system: Saccharomyces cerevisiae BY4741 SeMeCo community
z-score of subpopulation abundance: 0.47

compound: CC[C@H](C)C(=O)O[C@H]1C[C@@H](C)C=C2C=C[C@H](C)[C@H](CC[C@@H]3C[C@@H](O)CC(=O)O3)[C@H]21
target-system: Saccharomyces cerevisiae BY4741 SeMeCo community
z-score of subpopulation abundance: 0.37

compound: CCCCOc1cc(C(=O)OCCN(CC)CC)ccc1N [Oxybuprocaine HCl]
target-system: Saccharomyces cerevisiae BY4741 SeMeCo community
z-score of subpopulation abundance: -0.16

compound: OC(c1cc(C(F)(F)F)nc2c(C(F)(F)F)cccc12)C1CCCCN1 (configuration not stated) [Mefloquine HCl]
target-system: Saccharomyces cerevisiae BY4741 SeMeCo community
z-score of subpopulation abundance: 0.29

compound: CCOc1ccc2ccccc2c1C(=O)N[C@@H]1C(=O)N2[C@@H]1SC(C)(C)[C@@H]2C(=O)O [Nafcillin Sodium]
target-system: Saccharomyces cerevisiae BY4741 SeMeCo community
z-score of subpopulation abundance: -0.19

compound: CC(C)n1c(/C=C/C(O)CC(O)CC(=O)O)c(-c2ccc(F)cc2)c2ccccc21 (configuration not stated) [Fluvastatin Sodium]
target-system: Saccharomyces cerevisiae BY4741 SeMeCo community
z-score of subpopulation abundance: 4.2

compound: O=C(Nc1cc(Cl)cc(Cl)c1O)c1c(O)c(Cl)cc(Cl)c1Cl [Oxyclozanide]
target-system: Saccharomyces cerevisiae BY4741 SeMeCo community
z-score of subpopulation abundance: -0.55

compound: CC(C(=O)O)c1ccc2c(c1)CC(=O)c1ccccc1S2 (configuration not stated)
target-system: Saccharomyces cerevisiae BY4741 SeMeCo community
z-score of subpopulation abundance: -0.03

compound: CC(C)[C@H](N)C(=O)OCCOCn1cnc2c(=O)nc(N)[nH]c21 [Valaciclovir HCl]
target-system: Saccharomyces cerevisiae BY4741 SeMeCo community
z-score of subpopulation abundance: -0.75

compound: CCN(Cc1ccncc1)C(=O)C(CO)c1ccccc1 (configuration not stated) [Tropicamide]
target-system: Saccharomyces cerevisiae BY4741 SeMeCo community
z-score of subpopulation abundance: 0.42

compound: N=C(N)NS(=O)(=O)c1ccc(N)cc1
target-system: Saccharomyces cerevisiae BY4741 SeMeCo community
z-score of subpopulation abundance: -0.69

compound: CN(C)CCCN1c2ccccc2CCc2ccc(Cl)cc21 [Clomipramine HCl]
target-system: Saccharomyces cerevisiae BY4741 SeMeCo community
z-score of subpopulation abundance: -0.16

compound: Cc1cc(/C=C/c2ccc3cc(N(C)C)ccc3[n+]2C)c(C)n1-c1ccccc1
target-system: Saccharomyces cerevisiae BY4741 SeMeCo community
z-score of subpopulation abundance: -0.46

Where these numbers come from: the supplement of paper PMC8975748
